So I've got a bunch of binders here, and I need their fold change of affinity values.
target: T1, Human CD137 ECD (human); assay: single mutant vs template dBBDu183H
T1 construct: also called 4-1BB
T1 sequence (chain, as listed by the source limits assumed): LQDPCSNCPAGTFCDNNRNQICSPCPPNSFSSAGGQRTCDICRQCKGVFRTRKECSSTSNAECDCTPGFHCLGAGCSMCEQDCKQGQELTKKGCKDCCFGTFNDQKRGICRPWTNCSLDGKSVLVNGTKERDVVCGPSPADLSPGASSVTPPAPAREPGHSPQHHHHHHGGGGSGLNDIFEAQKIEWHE
Put your answer as a value accompanied by its unit after it.

H183/L072 VH A57Y (antibody, name in Kabat numbering, V domains shown) VH: QVQLVESGGGLVQPGRSLRLSCAASGFTFSNAWMHWVRQAPGKGLEWVAQIKDKGNAYAYYYAPSVKGRFTISRDDSKNSIYLQMNSLKTEDTAVYYCHYVHYASASTVLPAFGVDAWGQGTTVTVSS VL: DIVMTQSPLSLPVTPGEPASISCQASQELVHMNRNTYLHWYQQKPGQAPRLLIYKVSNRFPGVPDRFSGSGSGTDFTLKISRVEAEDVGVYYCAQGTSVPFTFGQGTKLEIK ... 0 fold

Endpoint output: fold change of affinity of H183/L072 VH V100cL (antibody, name in Kabat numbering, V domains shown) VH: QVQLVESGGGLVQPGRSLRLSCAASGFTFSNAWMHWVRQAPGKGLEWVAQIKDKGNAYAAYYAPSVKGRFTISRDDSKNSIYLQMNSLKTEDTAVYYCHYVHYASASTLLPAFGVDAWGQGTTVTVSS VL: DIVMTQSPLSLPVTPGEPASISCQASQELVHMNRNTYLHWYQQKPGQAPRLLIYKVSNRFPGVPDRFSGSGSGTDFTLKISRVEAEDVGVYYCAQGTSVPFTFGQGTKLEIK . Value?
3.3 fold

Cited source: patent US20210388087A1
